- test-system: Porcine pancreatic α-amylase (Sus scrofa, UniProt P00690)
- Construct: purchased Sigma-Aldrich Chemical Co. (St. Louis, MO, USA) A3176
- Sequence (P00690 16-511): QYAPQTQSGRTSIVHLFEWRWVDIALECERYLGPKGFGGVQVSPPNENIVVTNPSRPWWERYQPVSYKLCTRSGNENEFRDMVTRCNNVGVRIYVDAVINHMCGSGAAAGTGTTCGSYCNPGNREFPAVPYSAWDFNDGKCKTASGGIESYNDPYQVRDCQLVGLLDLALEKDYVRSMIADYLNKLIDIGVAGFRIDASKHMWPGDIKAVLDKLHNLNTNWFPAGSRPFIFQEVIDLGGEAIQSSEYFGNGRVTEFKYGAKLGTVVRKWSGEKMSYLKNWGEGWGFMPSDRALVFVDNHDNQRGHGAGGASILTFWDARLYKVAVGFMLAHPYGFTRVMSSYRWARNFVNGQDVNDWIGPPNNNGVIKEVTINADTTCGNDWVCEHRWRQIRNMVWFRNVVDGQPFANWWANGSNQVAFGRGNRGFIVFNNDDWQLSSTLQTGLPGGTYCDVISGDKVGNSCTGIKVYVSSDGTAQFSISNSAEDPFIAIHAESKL
- run-description: In vitro α-amylase inhibition assay (starch/DNS, absorbance at 540 nm)
- Assay type: biochemical
- measurement-context: 0.2 M potassium phosphate buffer pH 6.8, 37 °C, mean ± SD, triplicate; read-out: IC50 Values against α-Amylase (converted)
measured-endpoint: IC50 (mM)

I. O=C(O)c1ccc(O)cc1O [Compound 3, 2,4-Dihydroxybenzoic acid]
II. Cc1cc(C(=O)O)ccc1O [Compound 10, 4-Hydroxy-3-methylbenzoic acid]
Ask: For the pair I and II , which member has the lower IC50 number? I would appreciate it if you answered with the label of your choice.
Result: I
(I: 19.3 mM, II: 28.6 mM)

1. O=C(O)c1c(O)cc(O)cc1O [Compound 6, 2,4,6-Trihydroxybenzoic acid]
2. COc1cc(C(=O)O)cc(O)c1O [Compound 16, 3,4-Dihydroxy-5-methoxybenzoic acid]
Ask: Of 1 and 2 , whose reported IC50 is the larger number? I would appreciate it if you answered with the label of your choice.
Result: 2
(2: 37.8 mM, 1: 20.6 mM)

I. COc1cc(O)ccc1C(=O)O [Compound 14, 4-Hydroxy-2-methoxybenzoic acid]
II. Cc1cc(O)ccc1C(=O)O [Compound 9, 4-Hydroxy-2-methylbenzoic acid]
Ask: Of I and II , whose reported IC50 is the larger number? I would appreciate it if you answered with the label of your choice.
Result: I
